Measured pKd by item
molecular target: T1, human CD3e/g antigen (ACRO, catalog number CDG-H52W5) (human, UniProt P07766 23-126; P09693 23-116); assay: SPR (Biacore 8K), antibody captured via anti-human Fc
T1 construct: Bought reagent used as the Biacore analyte; also called hCD3e/g
pKd: −log10 of the molar value.

[
  {
    "Binder": "hAb007-25 (antibody, V domains shown, Humanized; constant regions not specified) VH: QVQLVQSGAEVKKPGASVKVSCKASGSTFTDNYIHWVRQAPGQRLEWIGWIYPGSVNIKYNEKFKDRATITADTSASTAYMELSSLRSEDTAVYYCARDISRYYFDYWGQGTTVTVSS VL: DIVMTQSPDSLAVSLGERATINCKSSQSLLNSRTRKNYLAWYQQKPGQPPKLLIYWASTRESGVPDRFSGSGSGTDFTLTISSLQAEDVAVYYCKQSFILRTFGGGTKLEIK",
    "pKd": 8.03
  },
  {
    "Binder": "hAb008-26 (antibody, V domains shown, Humanized; constant regions not specified) VH: QVQLVQSGAEVKKPGASVKVSCKASGYTFTDYTVNWVRQAPGQRLEWIGYINPFNSYTKYNQKFKDRATITADTSASTAYMELSSLRSEDTAVYFCANSVSTYWGQGTTVTVSS VL: DVVMTQSPLSLPVTLGQPASISCKSSQSLLDSDGKTYLNWLQQRPGQSPRRLIQLVSKLNSGVPDRFSGSGSGTDFTLKISRVEAEDVGVFYCWQGTHFPRTFGGGTKLEIK",
    "pKd": 7.74
  },
  {
    "Binder": "hAb001-32 (antibody, V domains shown, Humanized; constant regions not specified) VH: QVQLVQSGAEVKKPGASVKVSCKASGYSFTNYYMHWVKQAPGQRLEWIGWTYPGNNNIKYNEKFKGRATITADTSASTAYMELSSLRSEDTAVYYCARDGYGYYFFDYWGQGTLVTVSS VL: DIVMTQSPDSLAVSLGERATMSCKSSQSLLNNRTRKNYLAWYQQKPGQPPKLLIYWASTRESGVPDRFTGSGSGTDFTLTISSLQAEDVAVYYCKQSYTLRTFGGGTKLEIK",
    "pKd": 7.77
  },
  {
    "Binder": "hAb008-29 (antibody, V domains shown, Humanized; constant regions not specified) VH: QVQLVQSGAEVKKPGASVKVSCKASGYTFTDYTVNWVKQAPGQRLEWIGYINPFNSYTKYNQKFKDRATITADTSASTAYMELSSLRSEDTAVYFCANSVSTYWGQGTTVTVSS VL: DVVMTQSPLSLPVTLGQPASISCKSSQSLLDSDGKTYLNWFQQRPGQSPRRLIQLVSKLNSGVPDRFSGSGSGTDFTLKISRVEAEDVGVFYCWQGTHFPRTFGGGTKLEIK",
    "pKd": 7.68
  },
  {
    "Binder": "hAb007-27 (antibody, V domains shown, Humanized; constant regions not specified) VH: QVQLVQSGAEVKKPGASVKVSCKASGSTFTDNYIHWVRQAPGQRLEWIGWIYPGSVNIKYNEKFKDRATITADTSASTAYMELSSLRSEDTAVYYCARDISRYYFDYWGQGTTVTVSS VL: DIVMTQSPDSLAVSLGERATMNCKSSQSLLNSRTRKNYLAWYQQKPGQPPKLLIYWASTRESGVPDRFSGSGSGTDFTLTISSLQAEDVAVYYCKQSFILRTFGGGTKLEIK",
    "pKd": 8.00
  },
  {
    "Binder": "hAb008-22 (antibody, V domains shown, Humanized; constant regions not specified) VH: QVQLVQSGAEVKKPGASVKVSCKASGYTFTDYTVNWVRQAPGQRLEWIGYINPFNSYTKYNQKFKDRVTITADTSASTAYMELSSLRSEDTAVYYCANSVSTYWGQGTTVTVSS VL: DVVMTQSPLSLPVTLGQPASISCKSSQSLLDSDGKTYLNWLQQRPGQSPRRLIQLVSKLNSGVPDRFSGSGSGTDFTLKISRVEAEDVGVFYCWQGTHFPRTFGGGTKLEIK",
    "pKd": 7.69
  }
]
